Test system: SN12C renal
measurementNotes: NCI-60 one-dose screen, 48 h
runConditions: 10 µM unless noted
Compounds without any hit were thinned out: in the full panel of roughly 83,000, 20% have a hit. Activity calls are given as the source filed them. How the source made its calls: active means growth percent below 10; inactive means the rest.
Outcome codes: T (active), F (inactive)

Cc1ccc(F)cc1NC(=O)c1cc(Cl)ccc1Nc1ccccc1
F
O=C(c1ccccc1)N(C(=S)NCCc1ccc(Cl)cc1)c1ccccc1
F
O=C(Nc1ccc(-c2nc3cc4ccccc4cc3[nH]2)cc1)c1cccc(Br)c1
F
COc1ccc(C2=NN(/C=C3\SC(=O)NC3=Nc3ccc(F)cc3)C(c3ccc(F)cc3)C2)cc1 (centres undefined)
F
NCCNc1nc2ccccc2c2c(=O)c3cc(F)cc(Cl)c3sc12
T
CC[C@@H](C)[C@H](NC(=O)Cn1cc(CNC(=O)[C@@H](NC(=O)OCc2ccccc2)C(C)C)nn1)C(=O)O
F
CN1CCN(Cc2ccc(NC(=O)c3[nH]ncc3Nc3cc(OC4CCCC4)ncn3)cc2)CC1
F
Cc1ccc(C2CC(c3ccc(Nc4nc(NCCO)nc(Nc5ccc(Cl)cc5)n4)cc3)=NN2c2cc(Cl)cc(Cl)c2)cc1 (centres undefined)
F
C=C1C(=O)O[C@H]2[C@H]1CC/C(COC(=O)/C=C\C(=O)O)=C\CC[C@@]1(C)O[C@@H]21
F
NC(=O)CSc1nc(-c2ccc(F)cc2)cc(-c2ccco2)n1
F
Nc1cccc(Nc2cc(S(=O)(=O)O)c(N)c3c2C(=O)c2ccccc2C3=O)c1
F
O=C(CSc1ccc2nnc(-c3cccc(F)c3)n2n1)Nc1ccc2c(c1)OCO2
F
N#C/C(=C\c1c(-c2ccccc2)[nH]c2ccccc12)S(=O)(=O)c1ccccc1
F
Cc1nn(-c2nc3ccccc3[nH]2)c2c1C(c1ccc(OCC(N)=O)cc1)CC(=O)N2 (centres undefined)
F
O=C(CSc1nc2ccccc2c(=O)n1-c1ccccc1)Nc1ccc(C(=O)/C=C/c2ccc(Cl)cc2)cc1
F
Nc1nc(-c2cnccn2)nn1-c1nc2ccccc2s1
F
Nc1ccccc1-c1ccc(-c2ccc(Cl)cc2)c2c1[nH]c1ccccc12
F
CC(C)C[C@H](C(=O)N[C@H](C(N)=O)C(C)C)N1CC=CCN(OCc2ccccc2)S1(=O)=O
F
COc1ccc2sc(N(Cc3cccnc3)C(=O)c3ccc(C#N)cc3)nc2c1
F

The measured values listed here are drawn from PubChem BioAssay (NCI).
